Provenance of the data: patent US20260115256A1

Please respond with reported EC50, CRE-luciferase assay for every item in the list.
Target: T1, human amylin receptor (AMY3) on CHO-K1/Ga15/AMY3 cells (human, UniProt P30988 25-474; O60896 24-148)
T1 sequence (looked up) 1: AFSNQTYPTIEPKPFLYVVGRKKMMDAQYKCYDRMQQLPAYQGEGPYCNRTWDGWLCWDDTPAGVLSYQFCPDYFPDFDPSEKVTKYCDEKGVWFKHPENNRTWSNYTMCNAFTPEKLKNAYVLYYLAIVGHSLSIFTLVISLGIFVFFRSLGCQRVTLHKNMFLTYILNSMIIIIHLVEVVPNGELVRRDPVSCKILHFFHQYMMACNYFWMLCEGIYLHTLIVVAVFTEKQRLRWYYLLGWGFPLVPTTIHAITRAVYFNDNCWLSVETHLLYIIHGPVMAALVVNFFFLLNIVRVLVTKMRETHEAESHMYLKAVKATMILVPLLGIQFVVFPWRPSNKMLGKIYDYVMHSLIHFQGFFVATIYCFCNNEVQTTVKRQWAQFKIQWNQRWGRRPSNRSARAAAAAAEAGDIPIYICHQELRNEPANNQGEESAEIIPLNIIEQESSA
T1 sequence (looked up) 2: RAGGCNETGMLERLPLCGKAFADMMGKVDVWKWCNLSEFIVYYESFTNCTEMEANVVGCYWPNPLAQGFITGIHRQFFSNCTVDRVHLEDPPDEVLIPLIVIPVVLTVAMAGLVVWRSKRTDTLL
Assay: cell-based or functional assay
*1 amine or outer side, *2 acyl side, *3 side chain or, on linkers, in order; H or OH if unused. Bridges are numbered along the chain shown (N, C = ends). Where no end group is shown, it is not given here. Side-chain parts run from the residue outwards. [ ]: non-standard residue; d: D form. The star is where a group is joined. C20 diacid = O=C(O)CCCCCCCCCCCCCCCCCCC(=O)*; γGlu = O=C(O)[C@H](CCC(=O)[*:2])N[*:1]; Hyp = O=C(O)[C@@H]1C[C@@H](O)CN1; PEG = not defined here
// return numeric value only (unit: nM, not printed)

Req: // lookup EC50, CRE-luciferase assay for RCNTATCATQRLADFLRHSSNNLK([γGlu-C20 diacid])PILPPTNVGSNT[cis‑Hyp]-NH2 (disulfide 2-7 (inferred)) [PD056]
Resp: 0.586

Req: // lookup EC50, CRE-luciferase assay for {C20 diacid-γGlu}-KCNTATCATQRLADFLRHSSNNLKPILPPTNVGSNTP-NH2 (disulfide 2-7 (inferred)) [PD160]
Resp: 0.035

Req: // lookup EC50, CRE-luciferase assay for {C20 diacid-γGlu}-KCNTATCATQRLADFLRHSSNNL[aK]PILPPTNVGSNTP-NH2 (disulfide 2-7 (inferred)) [PD167]
Resp: 0.05

Req: // lookup EC50, CRE-luciferase assay for HCNTATCATQRLADFLRHSSNNLK([γGlu-C20 diacid])PILPPTNVGSNT[Hyp]-NH2 (disulfide 2-7 (inferred)) [PD078]
Resp: 0.035

Req: // lookup EC50, CRE-luciferase assay for {C20 diacid-PEG-PEG-PEG-PEG-PEG-PEG-PEG-PEG-γGlu}-KCNTATCATQRLADFLRHSSNNLKPILPPTNVGSNT[Hyp]-NH2 (disulfide 2-7 (inferred); reading uncertain) [PD186]
Resp: 0.052
